These measurements were taken from paper PMC11302729.

Test system: Enterococcus faecium vanA (strain E1654)
Test: MIC (microdilution) against E. faecium
Type: cell-based
Settings: Enterococcus faecium, read-out: MIC E. faecium
Experimental: Staphylococcus aureus str. […] The minimal inhibitory concentration was determined using the microdilution method following the guidelines of the European Committee on Antimicrobial Susceptibility Testing ([50]). […] MIC was recorded as the lowest concentration where no growth was detected as measured by optical density at 600 nm (OD600) using Spectramax M5 (Molecular Devices LLC, San Jose, CA, USA). […]
With a cut-off of 10 µg/mL, any MIC strictly below it is called yes (1); any MIC meeting it or above is called no (0).

- COc1ccc(-c2[nH]nc(C(F)(F)F)c2-c2ccccc2)c(O)c1 [DPP-2]: no (0)
- Oc1ccc(-c2[nH]nc(C(F)(F)F)c2-c2ccccc2)c(O)c1 [DPP-1]: no (0)
- COc1ccc(-c2c(C(F)(F)F)n[nH]c2-c2ccc(OC)cc2O)cc1 [DPP-13]: no (0)
- Oc1ccccc1-c1[nH]nc(C(F)(F)F)c1-c1ccc(Cl)cc1 [DPP-22]: no (0)
- CCOc1ccc(-c2[nH]nc(C(F)(F)F)c2-c2ccccc2)c(O)c1 [DPP-3]: no (0)
- COc1ccc(-c2[nH]nc(C(F)(F)F)c2-c2ccc(Cl)cc2)c(O)c1 [DPP-6]: yes (1)
- Oc1cc(OCc2ccccc2)ccc1-c1[nH]nc(C(F)(F)F)c1-c1ccccc1 [DPP-4]: yes (1)
- CCOc1ccc(-c2[nH]nc(C(F)(F)F)c2-c2ccc(OC)c(OC)c2)c(O)c1 [DPP-20]: no (0)
- COc1ccc(-c2[nH]nc(C)c2-c2ccc(Cl)cc2)c(O)c1 [DPP-10]: no (0)
- COc1ccc(-c2[nH]nc(C(F)(F)F)c2-c2ccccc2OC)c(O)c1 [DPP-17]: no (0)

Request: Problem: For the molecule FC(F)(F)c1n[nH]c(-c2ccccc2)c1-c1ccc(Cl)cc1 [DPP-21] , is MIC under 10 µg/mL?
Result: no (0)

Request: Proceed to Oc1cc(OCc2ccccc2)ccc1-c1[nH]nc(C(F)(F)F)c1-c1ccc(Cl)cc1 [DPP-8]
Result: yes (1)

Request: Proceed to CCOc1ccc(-c2[nH]nc(C(F)(F)F)c2-c2ccc(Cl)cc2)c(O)c1 [DPP-7]
Result: yes (1)

Request: Proceed to COc1ccccc1-c1c(C(F)(F)F)n[nH]c1-c1ccc(O)cc1O [DPP-16]
Result: no (0)

Request: Proceed to Oc1ccc(-c2n[nH]c(C(F)(F)F)c2-c2ccc(Cl)cc2)c(O)c1 [DPP-5]
Result: no (0)
